So I've got a bunch of compounds here, and I need their MIC values.
- System: up to 32 different microorganisms
- assay_procedure: in vitro antibacterial activity (MIC), agar dilution on Brain Heart Infusion (BHI) agar with Steers replicator
- Format: cell-based
- applied_conditions: Staphylococcus aureus ATCC 6538P (code AA); unit assumed
// return the numeric value with its unit appended

CCC1OC(=O)C(C)C(=O)C(C)C(OC2OC(C)CC(N(C)C)C2O)C(C)(OCC=Cc2cccc3ncccc23)CC(C)C(=O)C(C)C2NC(=O)OC12C (centres unmarked) = 0.1 µg/mL

Respectfully, I request MIC for each entry included below.
1. CC[C@H]1OC(=O)[C@H](C)C(=O)[C@H](C)[C@@H](O[C@@H]2O[C@H](C)C[C@H](N(C)C)[C@H]2O)[C@@](C)(OCC=Cc2cnc3ccccc3c2)C[C@@H](C)C(=O)[C@H](C)[C@H]2N(C)C(=O)O[C@]12C
2. CCC1OC(=O)C(C)C(=O)C(C)C(OC2OC(C)CC(N(C)C)C2O)C(C)(OCC=Cc2cccnc2)CC(C)C(=O)C(C)C2NC(=O)OC12C (centres unmarked)
3. C=CCO[C@@]1(C)C[C@@H](C)C(=O)[C@H](C)[C@H]2N(C)C(=O)O[C@]2(C)[C@@H](CC)OC(=O)[C@H](C)C(=O)[C@H](C)[C@H]1O[C@@H]1O[C@H](C)C[C@H](N(C)C)[C@H]1O
4. CCC1OC(=O)C(C)C(=O)C(C)C(OC2OC(C)CC(N(C)C)C2O)C(C)(OCC=Cc2cnc3ccccc3c2)CC(C)C(=O)C(C)C2N(CCN(C)C)C(=O)OC12C (centres unmarked)
5. CC[C@H]1OC(=O)[C@H](C)C(=O)[C@H](C)[C@@H](O[C@@H]2O[C@H](C)C[C@H](N(C)C)[C@H]2O)[C@@](C)(OCc2ccc3ccccc3c2)C[C@@H](C)C(=O)[C@H](C)[C@@H](O)[C@]1(C)O

Given back:
0.1 µg/mL
0.1 µg/mL
6.2 µg/mL
0.39 µg/mL
12.5 µg/mL

Required: MIC, one value per compound below.
1. CCC1OC(=O)C(C)C(=O)C(C)C(OC2OC(C)CC(N(C)C)C2O)C(C)(OCC=Cc2cccc([N+](=O)[O-])c2)CC(C)C(=O)C(C)C2NC(=O)OC12C (centres unmarked)
2. CC[C@H]1OC(=O)[C@H](C)C(=O)[C@H](C)[C@@H](O[C@@H]2O[C@H](C)C[C@H](N(C)C)[C@H]2O)[C@@](C)(OCC=NO)C[C@@H](C)C(=O)[C@H](C)[C@@H](O)[C@]1(C)O
3. CC[C@H]1OC(=O)[C@H](C)C(=O)[C@H](C)[C@@H](O[C@@H]2O[C@H](C)C[C@H](N(C)C)[C@H]2O)[C@@](C)(OCc2ccc3ccccc3c2)C[C@@H](C)C(=O)[C@H](C)[C@H]2NC(=O)O[C@@]21C
4. CC[C@H]1OC(=O)[C@H](C)C(=O)[C@H](C)[C@@H](O[C@@H]2O[C@H](C)C[C@H](N(C)C)[C@H]2O)[C@@](C)(OCC=Cc2ccccc2)C[C@@H](C)C(=O)[C@H](C)[C@@H](O)[C@]1(C)O
5. CC[C@H]1OC(=O)[C@H](C)C(=O)[C@H](C)[C@@H](O[C@@H]2O[C@H](C)C[C@H](N(C)C)[C@H]2O)[C@@](C)(OCC=Cc2ccc(F)cc2)C[C@@H](C)C(=O)[C@H](C)[C@@H](O)[C@]1(C)O
6. CC[C@H]1OC(=O)[C@H](C)C(=O)[C@H](C)[C@@H](O[C@@H]2O[C@H](C)C[C@H](N(C)C)[C@H]2O)[C@@](C)(OCC=Cc2cnc3ccccc3c2)C[C@@H](C)C(=O)[C@H](C)[C@H]2NC(=O)O[C@@]21C

Given back:
0.05 µg/mL
6.2 µg/mL
1.56 µg/mL
1.56 µg/mL
3.1 µg/mL
0.05 µg/mL

Batch request: MIC per item, same order as input.
1. CC[C@H]1OC(=O)[C@H](C)C(=O)[C@H](C)[C@@H](O[C@@H]2O[C@H](C)C[C@H](N(C)C)[C@H]2O)[C@@](C)(OCC=Cc2ccc(OC)cc2)C[C@@H](C)C(=O)[C@H](C)[C@@H](O)[C@]1(C)O
2. CC[C@H]1OC(=O)[C@H](C)C(=O)[C@H](C)[C@@H](O[C@@H]2O[C@H](C)C[C@H](N(C)C)[C@H]2O)[C@@](C)(OCCCc2ccccc2)C[C@@H](C)C(=O)[C@H](C)[C@H]2OC(=O)O[C@@]21C
3. CCC1OC(=O)C(C)C(=O)C(C)C(OC2OC(C)CC(N(C)C)C2O)C(C)(OCC=Cc2cccc3cccnc23)CC(C)C(=O)C(C)C2NC(=O)OC12C (centres unmarked)
4. CC[C@H]1OC(=O)[C@H](C)C(=O)[C@H](C)[C@@H](O[C@@H]2O[C@H](C)C[C@H](N(C)C)[C@H]2O)[C@@](C)(OCCNCCc2ccccc2)C[C@@H](C)C(=O)[C@H](C)[C@@H](O)[C@]1(C)O
5. CCC1OC(=O)C(C)C(=O)C(C)C(OC2OC(C)CC(N(C)C)C2O)C(C)(OCC=Cc2ccc3[nH]ccc3c2)CC(C)C(=O)C(C)C2NC(=O)OC12C (centres unmarked)

Given back:
1: 1.56 µg/mL; 2: 0.39 µg/mL; 3: 0.2 µg/mL; 4: 6.2 µg/mL; 5: 0.05 µg/mL
